FYI, the data here is from ChEMBL document CHEMBL5291721.

Read-out record for Kappa-type opioid receptor (Homo sapiens, UniProt P41145): AC50

Worked examples, 10 compounds total:
compound	reported
NCC[C@H](O)C(=O)N[C@@H]1C[C@H](N)[C@@H](O[C@H]2O[C@H](CN)[C@@H](O)[C@H](O)[C@H]2O)[C@H](O)[C@H]1O[C@H]1O[C@H](CO)[C@@H](O)[C@H](N)[C@H]1O [AMIKACIN]	> 10 µM
CCOc1ccccc1OCC1CNCCO1 (stereo unspecified) [VILOXAZINE]	> 10 µM
CC1(C)NC(=O)N(c2ccc([N+](=O)[O-])c(C(F)(F)F)c2)C1=O [NILUTAMIDE]	> 30 µM
Brc1c(NC2=NCCN2)ccc2nccnc12 [BRIMONIDINE]	> 30 µM
CC=CC(=O)N(CC)c1ccccc1C	> 10 µM
C=CCC1(CC(C)C)C(=O)NC(=O)NC1=O [BUTALBITAL]	> 10 µM
CC(Oc1c(Cl)cccc1Cl)C1=NCCN1 (stereo unspecified) [LOFEXIDINE]	22 µM
C[C@]12CCC(=O)C=C1CC[C@@H]1[C@@H]2[C@@H](O)C[C@@]2(C)[C@H]1CC[C@]2(O)C(=O)CO [HYDROCORTISONE]	> 10 µM
CO[C@@H]1[C@@H](O[C@@H]2O[C@H](C)[C@@H](O[C@H]3C[C@@](C)(O)[C@@H](OC(=O)CC(C)C)[C@H](C)O3)[C@H](N(C)C)[C@H]2O)[C@@H](CC=O)C[C@@H](C)[C@@H](O)/C=C/C=C/C[C@@H](C)OC(=O)C[C@H]1OC(C)=O [JOSAMYCIN]	> 10 µM
CCCCc1ncc(/C=C(\Cc2cccs2)C(=O)O)n1Cc1ccc(C(=O)O)cc1 [EPROSARTAN]	> 10 µM

Reported AC50 ( CCN1CCN(C(=O)N[C@@H](C(=O)N[C@@H]2C(=O)N3C(C(=O)O)=C(CSc4nnnn4C)CS[C@H]23)c2ccc(O)cc2)C(=O)C1=O [CEFOPERAZONE] ) = > 10 µM

The reported value for CC(C)(C)C(=O)Oc1ccc(S(=O)(=O)Nc2ccccc2C(=O)NCC(=O)O)cc1 in terms of AC50 is > 30 µM

Noted for Cn1c(=O)c2c(ncn2CC2OCCO2)n(C)c1=O [DOXOFYLLINE] : its AC50 reads > 30 µM

AC50 measured on NCC(=O)CCC(=O)O [AMINOLEVULINIC ACID] = > 30 µM

The measured AC50 associated with O=C(O)CCCCCCNC1c2ccccc2CCc2ccccc21 [AMINEPTINE] reads > 30 µM

* * *

target: 5-hydroxytryptamine receptor 2A (Homo sapiens); format: functional, cell-based; note: assay procedure not described here
Sequence (P28223 whole entry): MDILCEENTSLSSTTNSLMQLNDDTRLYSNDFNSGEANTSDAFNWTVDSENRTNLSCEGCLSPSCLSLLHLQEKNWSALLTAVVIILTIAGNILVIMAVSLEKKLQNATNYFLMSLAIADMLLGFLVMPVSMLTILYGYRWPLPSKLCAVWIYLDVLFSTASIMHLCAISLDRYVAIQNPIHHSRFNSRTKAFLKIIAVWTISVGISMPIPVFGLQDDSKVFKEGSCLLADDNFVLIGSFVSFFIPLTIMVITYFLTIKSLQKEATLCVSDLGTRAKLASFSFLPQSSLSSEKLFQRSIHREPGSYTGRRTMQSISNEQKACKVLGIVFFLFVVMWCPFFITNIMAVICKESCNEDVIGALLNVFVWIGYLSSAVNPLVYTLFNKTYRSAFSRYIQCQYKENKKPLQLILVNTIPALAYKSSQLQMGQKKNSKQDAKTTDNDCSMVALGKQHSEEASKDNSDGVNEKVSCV
result.type: AC50

Solved entries (count: 8):
compound	AC50
CN(C)CC/C=C1\c2ccccc2CSc2ccccc21 [DOTHIEPIN]	> 30 µM
O=C(O)CCCCCCNC1c2ccccc2CCc2ccccc21	> 30 µM
O=C(O)/C=C/c1ccc(Cn2ccnc2)cc1	> 30 µM
CC(=O)OCC(=O)[C@@]12N=C(C)O[C@@H]1C[C@H]1[C@@H]3CCC4=CC(=O)C=C[C@]4(C)[C@H]3[C@@H](O)C[C@@]12C	> 30 µM
O=C(O)[C@H](CC(=O)N1C[C@H]2CCCC[C@H]2C1)Cc1ccccc1 [MITIGLINIDE]	> 10 µM
NS(=O)(=O)Cc1noc2ccccc12 [ZONISAMIDE]	> 10 µM
CC(C)OC(=O)CCC/C=C\C[C@@H]1[C@@H](CC[C@@H](O)CCc2ccccc2)[C@H](O)C[C@@H]1O	> 30 µM
CC(C[N+](C)(C)C)OC(N)=O (stereo not drawn)	> 10 µM

What the record says about CC(C)=CCC/C(C)=C/C=C/C(C)=C/C=C/C(C)=C/C=C/C=C(C)/C=C/C=C(C)/C=C/C=C(\C)CCC=C(C)C : AC50 is > 30 µM

Consider Cc1c(C(=O)NN2CCCCC2)nn(-c2ccc(Cl)cc2Cl)c1-c1ccc(Cl)cc1 . Its measured AC50 is > 30 µM

Looking up Nc1nc(/C(=C/CC(=O)O)C(=O)N[C@@H]2C(=O)N3C(C(=O)O)=CCS[C@H]23)cs1 , I see its AC50 listed as > 30 µM

The value of AC50 measured for the compound O=C(Cc1ccc(-c2ccccc2)cc1)Nc1ccccn1 [DIFENPIRAMIDE] turned out to be > 30 µM

So, CN1C(=O)C(O)N=C(c2ccccc2Cl)c2cc(Cl)ccc21 (stereo not drawn) ? Its AC50 was > 30 µM

// recorded AC50 for COc1ccc(CCN(C)CCCC(C#N)(c2cc(OC)c(OC)c(OC)c2)C(C)C)cc1OC (stereo not drawn) : > 30 µM

get_value(item= CCOC(=O)[N-]c1cn(N2CCOCC2)n[o+]1 , readout=AC50) returns > 30 µM

Given item C#C[C@]1(O)CC[C@H]2[C@@H]3CCc4cc(OC5CCCC5)ccc4[C@H]3CC[C@@]21C , the value recorded as its AC50 is > 10 µM

Reported AC50 ( CC[C@@H]1C(=O)OC[C@@H]1Cc1cncn1C ) = > 30 µM

// recorded AC50 for Cn1nnc2c(C(N)=O)ncn2c1=O [TEMOZOLOMIDE] : > 30 µM

* * *

target: Delta-type opioid receptor (Homo sapiens); note: assay procedure not described here
Sequence (P41143 whole entry): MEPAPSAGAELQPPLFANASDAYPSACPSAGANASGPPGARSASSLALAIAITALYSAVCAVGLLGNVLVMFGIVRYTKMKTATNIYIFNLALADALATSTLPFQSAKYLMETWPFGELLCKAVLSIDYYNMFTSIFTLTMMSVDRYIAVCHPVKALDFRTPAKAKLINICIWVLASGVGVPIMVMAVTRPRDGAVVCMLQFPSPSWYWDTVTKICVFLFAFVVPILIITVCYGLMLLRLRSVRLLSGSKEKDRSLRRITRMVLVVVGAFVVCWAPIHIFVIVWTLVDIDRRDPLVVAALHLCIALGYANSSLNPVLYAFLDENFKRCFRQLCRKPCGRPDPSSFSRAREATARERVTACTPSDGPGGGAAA
result.type: AC50

Example results:
compound	target.or.test.system	result.type	reported
CC(C)C[C@H]1C(=O)N2CCC[C@H]2[C@]2(O)O[C@](NC(=O)[C@@H]3C=C4c5cccc6[nH]c(Br)c(c56)C[C@H]4N(C)C3)(C(C)C)C(=O)N12	Delta-type opioid receptor (Homo sapiens)	AC50	> 30 µM
CC[C@@H]1C(=O)OC[C@@H]1Cc1cncn1C	Delta-type opioid receptor (Homo sapiens)	AC50	> 30 µM
CC1(C)CCC(CN2CCN(c3ccc(C(=O)NS(=O)(=O)c4ccc(NCC5CCOCC5)c([N+](=O)[O-])c4)c(Oc4cnc5[nH]ccc5c4)c3)CC2)=C(c2ccc(Cl)cc2)C1	Delta-type opioid receptor (Homo sapiens)	AC50	> 30 µM
CN(C)CCC=C1c2ccccc2C=Cc2ccccc21	Delta-type opioid receptor (Homo sapiens)	AC50	> 30 µM
NC1CCN(c2c(F)cc3c(=O)c(C(=O)O)cn(C4CC4)c3c2Cl)C1 (centres undefined)	Delta-type opioid receptor (Homo sapiens)	AC50	18 µM
C[C@H]1CNCCc2ccc(Cl)cc21	Delta-type opioid receptor (Homo sapiens)	AC50	> 30 µM
CS(=O)(=O)c1ccc(C2=C(c3ccccc3)C(=O)OC2)cc1	Delta-type opioid receptor (Homo sapiens)	AC50	> 10 µM
C=CCC1(C(C)CC)C(=O)NC(=O)NC1=O (centres undefined)	Delta-type opioid receptor (Homo sapiens)	AC50	> 30 µM

Now take the following compound into account.
AC50 value, target or system Delta-type opioid receptor (Homo sapiens), for Cn1nnc2c(C(N)=O)ncn2c1=O [TEMOZOLOMIDE] : > 30 µM

* * *

Reported AC50 values follow for various molecules
target: 5-hydroxytryptamine receptor 1A (Homo sapiens, UniProt P08908); note: assay procedure not described here
Sequence (P08908 whole entry): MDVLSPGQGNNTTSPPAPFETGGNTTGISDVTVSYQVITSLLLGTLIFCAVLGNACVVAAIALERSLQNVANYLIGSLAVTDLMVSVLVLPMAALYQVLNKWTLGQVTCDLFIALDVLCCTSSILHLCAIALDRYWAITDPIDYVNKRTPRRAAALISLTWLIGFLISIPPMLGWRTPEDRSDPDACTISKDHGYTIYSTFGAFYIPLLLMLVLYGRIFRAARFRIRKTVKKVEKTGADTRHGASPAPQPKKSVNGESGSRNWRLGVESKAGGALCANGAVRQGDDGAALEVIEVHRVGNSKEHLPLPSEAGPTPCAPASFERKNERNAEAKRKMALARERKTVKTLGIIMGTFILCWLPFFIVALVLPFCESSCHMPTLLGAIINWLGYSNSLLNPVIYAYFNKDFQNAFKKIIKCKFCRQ
The response must be a number in µM with no trailing unit.

Illustrative cases are given below, each with its answer.
molecule	target.or.test.system	AC50 [µM]
COc1ccc2c(c1)N(C[C@H](C)CN(C)C)c1ccccc1S2	5-hydroxytryptamine receptor 1A (Homo sapiens, UniProt P08908)	2.84
CN1CCN(C2=Nc3ccccc3Sc3ccc(Cl)cc32)CC1	5-hydroxytryptamine receptor 1A (Homo sapiens, UniProt P08908)	12.1
CCN(CC)CCOC(=O)C(c1ccccc1)C1CCCCC1 (centres undefined)	5-hydroxytryptamine receptor 1A (Homo sapiens, UniProt P08908)	2.71

Consider the record given below.
Measured AC50 of COCCCN1CCC(NC(=O)c2cc(Cl)c(N)c3c2OCC3)CC1 [PRUCALOPRIDE] : 6.1

* * *

molecular target: Alpha-2B adrenergic receptor (Homo sapiens, UniProt P18089); note: assay procedure not described here
Sequence (P18089 whole entry): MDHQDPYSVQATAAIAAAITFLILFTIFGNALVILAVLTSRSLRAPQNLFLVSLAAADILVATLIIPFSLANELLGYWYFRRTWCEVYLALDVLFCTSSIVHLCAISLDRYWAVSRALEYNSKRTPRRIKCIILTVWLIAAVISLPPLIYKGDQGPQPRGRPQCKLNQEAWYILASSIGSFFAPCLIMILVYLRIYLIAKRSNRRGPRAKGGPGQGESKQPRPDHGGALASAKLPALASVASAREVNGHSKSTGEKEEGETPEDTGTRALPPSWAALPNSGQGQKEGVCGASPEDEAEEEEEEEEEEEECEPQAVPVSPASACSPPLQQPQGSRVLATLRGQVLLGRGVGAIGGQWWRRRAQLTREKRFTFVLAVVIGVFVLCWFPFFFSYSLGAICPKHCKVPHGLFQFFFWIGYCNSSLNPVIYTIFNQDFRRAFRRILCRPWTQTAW
AC50 overview

Examples with their reported AC50 follow.
compound	target.or.test.system	reported
CC(CC1c2ccccc2CCc2ccccc21)CN(C)C (stereo not given)	Alpha-2B adrenergic receptor (Homo sapiens, UniProt P18089)	5 µM
CCCCCNC(=N)N/N=C/c1c[nH]c2ccc(OC)cc12	Alpha-2B adrenergic receptor (Homo sapiens, UniProt P18089)	3.37 µM
CN1C(=O)CCS(=O)(=O)C1c1ccc(Cl)cc1 (stereo not given)	Alpha-2B adrenergic receptor (Homo sapiens, UniProt P18089)	> 10 µM
CCc1c(Cl)c(O)c(Cl)c(O)c1C(=O)O[C@H]1[C@H](O)[C@H](OC)[C@H](OC/C2=C\C=C\C[C@H](O)/C(C)=C/[C@H](CC)[C@@H](O[C@@H]3OC(C)(C)[C@@H](OC(=O)C(C)C)[C@H](O)[C@@H]3O)/C(C)=C/C(C)=C/C[C@@H]([C@@H](C)O)OC2=O)O[C@@H]1C	Alpha-2B adrenergic receptor (Homo sapiens, UniProt P18089)	> 10 µM
Cn1nnc2c(C(N)=O)ncn2c1=O [TEMOZOLOMIDE]	Alpha-2B adrenergic receptor (Homo sapiens, UniProt P18089)	> 30 µM
CC(Oc1c(Cl)cccc1Cl)C1=NCCN1 (stereo not given)	Alpha-2B adrenergic receptor (Homo sapiens, UniProt P18089)	0.74 µM
COc1ccccc1N1CCN(CC(O)COc2cccc3ccccc23)CC1 (stereo not given)	Alpha-2B adrenergic receptor (Homo sapiens, UniProt P18089)	0.3 µM
COc1ccc(C(=O)Nc2ccccc2CCC2CCCCN2C)cc1 (stereo not given) [ENCAINIDE]	Alpha-2B adrenergic receptor (Homo sapiens, UniProt P18089)	> 10 µM
COc1ccc2c3c1O[C@H]1[C@@H](O)C=C[C@H]4[C@@H](C2)N(C)CC[C@@]341	Alpha-2B adrenergic receptor (Homo sapiens, UniProt P18089)	> 10 µM
CCN1CCN(C(=O)N[C@@H](C(=O)N[C@@H]2C(=O)N3C(C(=O)O)=C(CSc4nnnn4C)CS[C@H]23)c2ccc(O)cc2)C(=O)C1=O	Alpha-2B adrenergic receptor (Homo sapiens, UniProt P18089)	> 30 µM

Item: C=CCC1(C(C)CC)C(=O)NC(=O)NC1=O (stereo not given) | AC50: > 10 µM

CC[C@H]1[C@@H](O)[C@@H]2[C@H](CC[C@]3(C)[C@@H]([C@H](C)CCC(=O)O)CC[C@@H]23)[C@@]2(C)CC[C@@H](O)C[C@@H]12 has a reported AC50 of > 30 µM

// sample COc1ccc2c3c1O[C@H]1C(=O)CC[C@@]4(O)[C@@H](C2)N(C)CC[C@]314 , its AC50 was > 30 µM

The reported value for CCOC(=O)[N-]c1cn(N2CCOCC2)n[o+]1 in terms of AC50 is > 30 µM

// field: AC50; key: COC1=C(OC)C(=O)C(C/C=C(\C)CC/C=C(\C)CC/C=C(\C)CC/C=C(\C)CC/C=C(\C)CC/C=C(\C)CC/C=C(\C)CC/C=C(\C)CC/C=C(\C)CCC=C(C)C)=C(C)C1=O ; value = > 30 µM
